subject.of.test: IMP-1 (Serratia marcescens)
Sequence (P52699 whole entry, looked up, species assumed): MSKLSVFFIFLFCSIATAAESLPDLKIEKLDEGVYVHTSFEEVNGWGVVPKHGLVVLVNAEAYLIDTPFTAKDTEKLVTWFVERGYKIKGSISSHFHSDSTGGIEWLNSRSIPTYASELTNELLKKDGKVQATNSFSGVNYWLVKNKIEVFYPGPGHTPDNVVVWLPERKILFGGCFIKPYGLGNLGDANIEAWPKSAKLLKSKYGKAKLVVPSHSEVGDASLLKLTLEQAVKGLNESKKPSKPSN
assay.comment: biochemical
Format: biochemical
protocol.conditions: fluorescence assay, CCF2-FA substrate, 2 pM enzyme, 2 hours at 25° C.; read-out: IMP-1 IC50
measure: IC50 (nM)
Value expressed in nM; do not type the unit.

Answered examples (5):
>  <molecule>
Cc1ccc(-c2ccc(S(=O)(=O)N[C@@H]3CCNC3)c(S(N)(=O)=O)c2-c2nn[nH]n2)c2nc(N)[nH]c12 [Example 285]

>  <IC50, nM>
0.318

$$$$
>  <molecule>
NCCNS(=O)(=O)c1ccc(-c2cccc(C(=O)NC[C@H](O)CN)c2)c(-c2nn[nH]n2)c1S(N)(=O)=O [Example 346]

>  <IC50, nM>
3.65

$$$$
>  <molecule>
Cc1ccc(-c2ccc(S(=O)(=O)NCCN)c(S(N)(=O)=O)c2-c2nn[nH]n2)c2nc(N)[nH]c12 [Example 329]

>  <IC50, nM>
0.128

$$$$
>  <molecule>
C[C@@H](CCN)NS(=O)(=O)c1ccc(-c2cccc3[nH]c(N)nc23)c(-c2nn[nH]n2)c1S(N)(=O)=O [Example 267]

>  <IC50, nM>
1.63

$$$$
>  <molecule>
Nc1nc2c(-c3ccc(S(=O)(=O)NC[C@@H](N)C(=O)O)c(S(N)(=O)=O)c3-c3nn[nH]n3)cccc2s1 [Example 154]

>  <IC50, nM>
0.155

$$$$

query: Quick one: give measured IC50 for Nc1nc2c(-c3ccc(S(=O)(=O)N[C@H]4CNC[C@H]4O)c(S(N)(=O)=O)c3-c3nnn[nH]3)cccc2[nH]1 [Example 168]
result: 0.544

query: Quick one: give measured IC50 for CN(C)CCCN(C)S(=O)(=O)c1ccc(-c2cccc3sc(N)nc23)c(-c2nnn[nH]2)c1S(N)(=O)=O [Example 52]
result: 5.94

---

subject.of.test: NDM-1 (Klebsiella pneumoniae)
Sequence (C7C422 whole entry, looked up, species assumed): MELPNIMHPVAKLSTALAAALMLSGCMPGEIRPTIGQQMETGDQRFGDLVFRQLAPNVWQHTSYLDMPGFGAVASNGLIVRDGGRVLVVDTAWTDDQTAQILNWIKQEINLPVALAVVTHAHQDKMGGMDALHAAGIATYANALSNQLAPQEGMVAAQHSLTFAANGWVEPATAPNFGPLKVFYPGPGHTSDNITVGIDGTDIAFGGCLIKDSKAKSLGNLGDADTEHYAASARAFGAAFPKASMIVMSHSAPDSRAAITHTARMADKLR
assay.comment: biochemical
Type: biochemical
protocol.conditions: fluorescence assay, CCF2-FA substrate, 1 pM enzyme, 2 hours at 25° C.; read-out: NDM-1 IC50
pIC50: −log10 of the molar value.
Record 1.0 whenever pIC50 is at 10 or higher; record 0.0 when lower.

>  <compound>
NCC(CN)NS(=O)(=O)c1ccc(-c2cccc3sc(N)nc23)c(-c2nn[nH]n2)c1S(N)(=O)=O [Example 436]

>  <discrete.label>
1.0

$$$$

query: Given CN(C)C1CCN(S(=O)(=O)c2ccc(-c3cccc4sc(N)nc34)c(-c3nnn[nH]3)c2S(N)(=O)=O)CC1 [Example 26] , state whether its pIC50 is at least 10.
result: 0.0

query: Given CN(C)C(=O)CNS(=O)(=O)c1ccc(-c2cccc3sc(N)nc23)c(-c2nnn[nH]2)c1S(N)(=O)=O [Example 36] , state whether its pIC50 is at least 10.
result: 1.0

query: Given Nc1nc2c(-c3ccc(S(=O)(=O)NC4CNC4)c(S(N)(=O)=O)c3-c3nn[nH]n3)cccc2s1 [Example 146] , state whether its pIC50 is at least 10.
result: 1.0

query: Given Nc1cncc(-c2ccc(S(=O)(=O)N[C@@H]3CCNC3)c(S(N)(=O)=O)c2-c2nn[nH]n2)c1 [Example 219] , state whether its pIC50 is at least 10.
result: 0.0
